B1: TPR t1 (parent)
chain: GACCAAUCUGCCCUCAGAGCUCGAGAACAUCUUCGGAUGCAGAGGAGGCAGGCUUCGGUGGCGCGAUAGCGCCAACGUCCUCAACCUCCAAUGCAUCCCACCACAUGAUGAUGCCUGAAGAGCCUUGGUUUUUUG

# Variants of: B1
# procedure.summary: polymerase ribozyme fitness, log enrichment relative to wild type (log ratio); higher = more active; in vitro selection for triplet polymerase activity
Assignment: determine reported polymerase ribozyme fitness (log ratio) for the given variants.
One number for each entry.

Can you give me polymerase ribozyme fitness (log ratio) for all of these, one by one?
1. GACCAAUCUGCCCUCAGAUCUCGAGAACAUUUUCGGAUGCAGAGGAGGCAGGCUUGGGUGGCGCGAUAGCGCCAACGUCCUCAACCUCCAAUGCAUCCCACCACAUGAUGAUGCCUGAAGAGCUUUGGUUUUUUG [G19U C31U C56G C124U]
2. GACCAAUCUGCCCUCAGAGCUCGAGAACAUCUUCGGAUGCAGAGGAGGAAGGCUCCGGUGGCGCGAUAGCGCCAACGUCCUCAACCUCCAAUGCAUCCCACCACAUGAUGAUGCCUGAAGAGCCUUGGUUUUUUG [C49A U55C]
3. GACCAAUCUGCCCUCAGAGCUCGAGAACAUCUUCGGAUGCAGAGGAGGCAGGCUUCGGUGGCGCGAUAGCGCCAACGUCCUCAACCUCCAAUGCAUUCCACCACAUGAUGAUGCCUGAAGAACCUUGGUUUUUUG [C97U G122A]
4. GACCAAUCUGCCCUCAGAGCUCGAGAACAUCUUCGGACGCAGAGGAGGCAGGCUUCGGUGGCCCGAUAGCGCCAACGUCCUCAACCUCCAAUGCAUCCCACUACAUGAUGAUGCCUGAAGAGCCUUGGUUUUUUG [U38C G63C C102U]
5. GACCAAUCUGCCCUCAGAGCUCGAGAACAUCUUCGGAUGCAGAGGAGGCAGGCUUCGGUGUCGCGAUAGUGCCAACGUCCUCAACCUCCAAUGCAUCCCACCACAUGAUGAUGCCUGAAGAGCCUUGGUUUUUUG [G61U C70U]

## Output
[-6.42, -1.24, -1.08, -3.7, -2.03]

Go through the items and report each one's polymerase ribozyme fitness (log ratio).
1. GACCAAUCUGCCCUCAGAGCUCGAGAAUAUCUUCGGAUGCAGAGGAGGCUGGCUUCGGUGGCGCGAUAGCGCCAACGUCCUCAACCUCCAAUGCAUCCCACCACAUGAUGAUGCCUGAAGAGUCUUGGUUUUUUG [C28U A50U C123U]
2. GACCAAUCUGCCCUCAGAGCUCGAGAACAUCUUCGGAUGCAGAGGAGGCAGGCUUAGGUGGCGCGAUAGCUCCAACGGCCUCAACCUCCAAUGCAUCCCACCACGUGAUGAUGCCUGAUGAACCUUGGUUUUUUG [C56A G71U U78G A105G A119U G122A]
3. GACCAAUCUGCCCUCAGAGCUCGAGAACAUCUUCGGAUGGAGAGGAGGCAGGCUUUGGUGGCGCGAUAGCGCCAACGUCCUCAACCUCCAAUGCAUCCCACCACAUGAUGAUGCCUGAAGAGCCUUGCUUUUUUG [C40G C56U G128C]
4. GACCAAUCUGCCCUCAGAGCUGGAGCACAUCUUCGGAUUCAGAGGAGGCGGGCUUCGGUGGCGCGAUAGCGUCAACGUCCUCAACCUCCAAUGCAUCCCACCACAUGAUGACGCCUGAAGAGCCUUGGUUUUUUG [C22G A26C G39U A50G C72U U112C]
5. GACCAAUCUGCCCUCAGAGCUCGAGAACAUCUUCGGAUGCAGAGGAGGCAGCCUUUGGUGGCGCGAUAGCGCCAACGUCCUUACCCUCCAAUGCAUCCCACCACAUGAUGAUGCCUGAAGAGCCUUGGUUUUUUG [G52C C56U C82U A84C]
6. GACCAAGCUGCCCUCAGAGCUCGAGAACAUCUUCGGAUGCAGAGGAGGCAGGCUUCGGUGGCGCGAUAGCGCCAACGUCCUCAACCUCCAAUGCAUCCCACCACAUGAUGAUGUCUGAAGAGCCUUAGUUUUUUG [U7G C114U G127A]
7. GACCAAUCUGCCCUCAGAGCUCGAGAACAUCUUCGGAUGCAGAGGAGGCAGGCUUCGGUGGCGCGAUAGCGCCAACGUCCUCAACCUCCAAUGCAUCCCACCACAUAAUGAUCCCUGAAGAGCCUUGGUUUUUUG [G107A G113C]

## Output
[-3.55, -5.65, -3.4, -4.01, 0.272, -1.17, -5.82]

For the 6 variants below, give their polymerase ribozyme fitness (log ratio) values.
1. GACCAAUCUGCCCUCAGAGCUCGAGAACAUCUUCGGAUGCAGAGGAGGCAGGCUUCGGUGGCGUGAUAGCGCCAAGGUCCUCAACCUCCAAUGCAUCCCACCACAUGAUGAUGCCUGAAGAGCCUUGGUUUUUUG [C64U C76G]
2. GACCAAUCUGCCCUCAGAGCUCGAGAACAUCUUCGGAUACAGAGGAGGCAUGCUUCGGUGGCGCGAUAGCGCCAACGUUCUCAACCUCCAAUGCAUCCCAUCACAUGAUGAUGCCUGAAGAGCCUUGGUUUUUUG [G39A G51U C79U C101U]
3. GACCAAUCUGCCCUCAGAGCUCGAGAACAUCUUCGGAUGCAGAGGAGGCAGGCUUCGGUGGCGCGAUAGCCCCAACGUCCUCAACCUCCAAUGCAUCCCACCACAUGAUGAAGCCUGAAGAGCCUUGGUUUUAUG [G71C U112A U133A]
4. GACCAAUCUGCCCUCAGAGUUCGAGAACAUCUUCGGAUGCAGAGGAGGCAGGCUUCAGUGGCGCGAUAGCGCCAACGCCCUCAACCUCCAAUGCAUCCCACCACAUGAUGAUGCCUGAAGAGCCUUGGUUUUUUG [C20U G57A U78C]
5. GACCAAUCUGCCCUCAGGGCUCGAGAACAUCUUCGGAUGCAGAGGAGGCAGGCUUCUGCGGAGCGAUAGCGCCAACGUCCUCAACCUCCAAUGUAUCCCACCACAUGAUGAUGCCUUAAGAGCCUUGGUUUUUUG [A18G G57U U59C C62A C94U G117U]
6. GACCAAUCUGGCAUCAGAGCUCGAGAACAUCUUCGGAUGCAGAGGAGGCAGGCUUCGGUGGCGCGAUAGCGCCAACGUCCUCAACCUGCAAUGCAUCCCACCACAUGAUGAUGCCUGAAGAGCCUUGGUUUUUUG [C11G C13A C88G]

## Output
-3.51
-5.14
0.204
-3.25
-5.27
-2.71

Batch of 7 variants: report polymerase ribozyme fitness (log ratio) for each.
1. GACCAAGCUGCCCUCAGAGCUCGAGAACAUCGUCGGAUGCAGAGGAGGCAGGCUUCGGUGGCGCGAUAGCGCAAACGUCCUCAACCUCCAAUGCAUCACACCACAUGAUGAUGCCUGAAGAGCCUUGGUUUUUUG [U7G U32G C73A C98A]
2. GACCAAUCUGCCCUCAGAGCUCGAGAACAUCUUCGGAUGCAGAGGAGGCAGGCUUCGGUGUCGCGAUAGCGCCAACAUCCUCAACCUCCAAUGCAUCCCACCACAUGAUGAUGCCUGAAGAGCCUUGGUGUUUUG [G61U G77A U130G]
3. GACCAAUCUACCCUCAGAGCUCGAGAACAUCUUCGGAUGCAGAGGAGGCAGGCUUCGGUGGAGCGAUAGCGCCAACGUCCUCAACCUCCAAUGCAACCCACCACAUGAUGAUGCCUGAAGAGCCUUGGUUUUUUG [G10A C62A U96A]
4. GACCAAUCUGCCCUCAGAGCUCGAGAACAUCUUCGGAUGCAGAGGAGGCAGGCUUCGGUGACGCGAUAGCGCCAACGUCCUCAACCUCCAAUGCUUCCCACCACAUGAUGAUGCCUGAUCAGACUUGGUUUUUUG [G61A A95U A119U G120C C123A]
5. GACCAAUCCGCCCUCAGAGCUCGAGAACAUCUUCGGAUGCAGAGGAGGCAGGCUUCGGUGGCGCGAUAGCGCCAACGUCCUCAACCUCCAAUGCAUCCCACCACAUGAUGAAGGCUGAAGAGCCUUGGUUUUUUG [U9C U112A C114G]
6. GACCAAUCUGCCCUCAGAGCUCGAGAACAUCUUCGGCUGCAGAGGAGGCAGGCUUCGGUGGCGCGAUAGAGUCAACGUCCUCAACCUCCAAUGCAUCCCACCACAUGAUGAUGCCUGAAUAGCCUUGGUUUUUUG [A37C C70A C72U G120U]
7. GACCAAUCUGCCCUCAGAGCUCGAGAACAUCUUCGGAUGCAGAGGAAGCACGCUUCGGUGGCUCGAUAGCGCCAACGUCCUCAACCUCCAAUGCAUCCCACCACAUGAUGAUGCAUGAAUAGCCUUGGUUGUUUG [G47A G51C G63U C115A G120U U131G]

## Output
-4.14
-0.935
-2.02
1.22
0.928
-1.56
-4.36
